Target: IRAK4 (Homo sapiens)
Construct: endogenous in cells; host or cells: THP-1 cells
Sequence (Q9NWZ3 1-460): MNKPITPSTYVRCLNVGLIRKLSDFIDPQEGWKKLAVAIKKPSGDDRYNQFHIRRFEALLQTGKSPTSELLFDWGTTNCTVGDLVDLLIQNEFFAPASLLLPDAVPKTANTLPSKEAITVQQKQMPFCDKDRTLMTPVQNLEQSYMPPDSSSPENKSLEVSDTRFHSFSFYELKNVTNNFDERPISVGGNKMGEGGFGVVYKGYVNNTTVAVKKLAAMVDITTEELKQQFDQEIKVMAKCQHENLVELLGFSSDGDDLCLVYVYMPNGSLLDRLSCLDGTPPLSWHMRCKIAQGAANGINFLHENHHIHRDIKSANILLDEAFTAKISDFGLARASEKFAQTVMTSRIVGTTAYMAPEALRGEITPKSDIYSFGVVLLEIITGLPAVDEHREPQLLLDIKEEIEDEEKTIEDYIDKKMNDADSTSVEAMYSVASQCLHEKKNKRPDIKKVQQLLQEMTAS
Experiment: LVL THP1 HTRF (THP1 Homogeneous Time Resolved Fluorescence)
Assay type: cell-based
Settings: THP1 cells, 18 h incubation with compound
Structures can show the parent of a compound that is named as a salt.
quantity kind: LVL THP1 HTRF YMIN (%)
Answer in %, number only, no unit symbol.

Read the entry C[C@H](C#N)Nc1cc(-n2ncc3cc(C#N)c(N)nc32)ncc1-n1cc([C@H]2CC[C@H](CCN3CCN(c4ccc([C@@]5(C)CCC(=O)NC5=O)nc4)CC3)CC2)nn1 (single isomer, unassigned) [P-307] and write its reported LVL THP1 HTRF YMIN.
86.3

Read the entry CC[C@H]1CN(CC[C@H]2CC[C@H](c3cn(-c4cnc(-n5ncc6cc(C#N)cnc65)cc4N[C@H](C)C#N)nn3)CC2)CCN1c1ccc(C2CCC(=O)NC2=O)cc1 (stereo partly shown) and write its reported LVL THP1 HTRF YMIN.
−2.0

Read the entry `C[C@H](C#N)Nc1cc(Nc2ncc(C#N)cc2Cl)ncc1-n1cc([C@H]2CC[C@H](CCN3CC4(CC(c5ccc(N6CCC(=O)NC6=O)cc5)C4)C3)CC2)nn1` and write its reported LVL THP1 HTRF YMIN.
1.9

Read the entry Cc1cc(N2CC[C@H]3[C@@H]2CCN3CC[C@H]2CC[C@H](c3cn(-c4cnc(-n5ncc6cc(C#N)cnc65)cc4N[C@H](C)C#N)nn3)CC2)ccc1N1CCC(=O)NC1=O (single isomer, unassigned) [P-470] and write its reported LVL THP1 HTRF YMIN.
10.6

Read the entry C[C@H](C#N)Nc1cc(-n2ncc3cc(C#N)cnc32)ncc1C(=O)N[C@H]1CC[C@H](CCN2CC[C@H]3[C@@H]2CCN3c2ccc(N3CCC(=O)NC3=O)c(F)c2)CC1 [P-484] and write its reported LVL THP1 HTRF YMIN.
52.3

Read the entry `C[C@H](C#N)Nc1cc(Nc2ncc(C#N)cc2Cl)ncc1-n1cc([C@H]2CC[C@H](CCN3CCN(c4ccc(N5CCC(=O)NC5=O)cc4)CC3)CC2)nn1` and write its reported LVL THP1 HTRF YMIN.
6.5

Read the entry C[C@H](C#N)Nc1cc(-n2ncc3cc(C#N)cnc32)ncc1-n1cc([C@H]2CC[C@H](CCN3CCN(c4ccc(C5CCC(=O)NC5=O)cc4)CC3)CC2)nn1 (stereo partly shown) [P-139, formic acid salt] and write its reported LVL THP1 HTRF YMIN.
1.7

Read the entry C[C@H](C#N)Nc1cc(-n2ncc3cc(C#N)c(N)nc32)ncc1C(=O)N[C@H]1CC[C@H](CCN2CCN(c3ccc(C4CCC(=O)NC4=O)cc3)C(C(F)(F)F)C2)CC1 (stereo partly shown) [P-181] and write its reported LVL THP1 HTRF YMIN.
18.3

Read the entry `C[C@H](C#N)Nc1cc(-n2ncc3cc(C#N)cnc32)ncc1-n1cc([C@H]2CC[C@H](CCN3CC(Oc4ccc(N5CCC(=O)NC5=O)cc4)C3)CC2)nn1` and write its reported LVL THP1 HTRF YMIN.
107.9

Read the entry C[C@H](C#N)Nc1cc(-n2ncc3cc(C#N)cnc32)ncc1-n1cc(C2CCC(CCN3C[C@H](C)N(c4ccc(C5CCC(=O)NC5=O)cc4)C[C@H]3C)CC2)nn1 (stereo partly shown) and write its reported LVL THP1 HTRF YMIN.
1.1

###

Biological target: IRAK4 (Homo sapiens)
Construct: endogenous in cells; host or cells: THP-1 cells
Sequence (Q9NWZ3 1-460): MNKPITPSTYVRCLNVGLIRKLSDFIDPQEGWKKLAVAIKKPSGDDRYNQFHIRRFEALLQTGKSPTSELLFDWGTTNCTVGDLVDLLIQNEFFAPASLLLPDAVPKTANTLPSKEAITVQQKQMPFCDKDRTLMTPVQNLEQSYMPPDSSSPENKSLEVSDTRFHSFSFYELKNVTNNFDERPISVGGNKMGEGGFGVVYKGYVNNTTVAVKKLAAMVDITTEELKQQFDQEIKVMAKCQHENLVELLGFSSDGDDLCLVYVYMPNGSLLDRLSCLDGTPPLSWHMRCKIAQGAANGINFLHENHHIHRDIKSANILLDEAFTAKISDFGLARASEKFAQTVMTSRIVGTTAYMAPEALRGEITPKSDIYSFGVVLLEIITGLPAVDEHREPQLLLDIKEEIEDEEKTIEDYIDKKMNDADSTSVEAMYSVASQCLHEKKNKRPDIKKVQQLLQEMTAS
Assay: LVL THP1 HTRF (THP1 Homogeneous Time Resolved Fluorescence)
Assay type: cell-based
Conditions: THP1 cells, 18 h incubation with compound, read-out: LVL THP1 HTRF EC50
quantity kind: DC50 (nM)
Answer in nM, number only, no unit symbol.

Read the entry CC[C@@H]1CN(CC[C@H]2CC[C@H](c3cn(-c4cnc(-n5ncc6cc(C#N)cnc65)cc4N[C@H](C)C#N)nn3)CC2)CCN1c1ccc(N2CCC(=O)NC2=O)cc1 [P-393] and write its reported DC50.
6.1

Read the entry `C[C@H](C#N)Nc1cc(-n2ncc3cc(C#N)cnc32)ncc1-n1cc([C@H]2CC[C@H](CCN3CCN(c4ccc(N5CCC(=O)NC5=O)cc4)C[C@H]3C)CC2)nn1` and write its reported DC50.
2.5

Read the entry C[C@H](C#N)Nc1cc(-n2ncc3cc(C#N)cnc32)ncc1-n1cc([C@H]2CC[C@H](CCN3CCC(c4cn(C5CCC(=O)NC5=O)nn4)CC3)CC2)nn1 (some centres unmarked) and write its reported DC50.
91.2

Read the entry N#Cc1cnc2c(cnn2-c2cc(N[C@H]3CCC[C@H]3O)c(-n3cc([C@H]4CC[C@H](CCN5CCN(c6ccc(C7CCC(=O)NC7=O)cc6)CC5)CC4)nn3)cn2)c1 (some centres unmarked) and write its reported DC50.
3.3

Read the entry COc1cc([C@@]2(C)CCC(=O)NC2=O)ccc1N1CCN(CC[C@H]2CC[C@H](c3cn(-c4cnc(-n5ncc6cc(C#N)c(N)nc65)cc4N[C@H](C)C#N)nn3)CC2)C[C@@H]1C (single isomer, unassigned) [P-302] and write its reported DC50.
10.5

Read the entry C[C@H](C#N)Nc1nc(-n2ncc3cc(C#N)cnc32)ncc1C(=O)N[C@H]1CC[C@H](CCN2CCN(c3ccc(C4CCC(=O)NC4=O)cc3)CC2)CC1 (some centres unmarked) and write its reported DC50.
30.3

Read the entry C[C@H](C#N)Nc1cc(-n2ncc3cc(C#N)cnc32)ncc1-n1cc([C@H]2CC[C@](O)(CCN3CCN(c4ccc([C@@]5(C)CCC(=O)NC5=O)nc4)CC3)CC2)nn1 (single isomer, unassigned) [P-294] and write its reported DC50.
1230

Read the entry CC1CN(CC[C@H]2CC[C@H](c3cn(-c4cnc(-n5ncc6cc(C#N)cnc65)cc4N[C@H](C)C#N)nn3)CC2)CCC1c1ccc([C@@]2(F)CCC(=O)NC2=O)cc1 (single isomer, unassigned) [P-333] and write its reported DC50.
334

Read the entry `C[C@H](C#N)Nc1cc(-n2ncc3cc(C#N)cnc32)ncc1-n1cc([C@H]2CC[C@H](CCN3CCC(c4ccc(N5CCC(=O)NC5=O)cn4)CC3)CC2)nn1` and write its reported DC50.
1000

Read the entry C[C@H](C#N)Nc1cc(Nc2ncc(F)cc2F)ncc1-n1cc([C@H]2CC[C@H](CCN3CCN(c4ccc(C5CCC(=O)NC5=O)cc4)CC3)CC2)nn1 (some centres unmarked) and write its reported DC50.
28

Read the entry `Cc1cc(N2CCC(=O)NC2=O)ccc1C1CCN(CC[C@H]2CC[C@H](c3cn(-c4cnc(-n5ncc6cc(C#N)cnc65)cc4N[C@H](C)C#N)nn3)CC2)CC1` and write its reported DC50.
58.7

###

Biological target: IRAK4 (Homo sapiens)
Construct: endogenous in cells
Test: ALE THP1 HTRF (Advanced Lipoxidation End Product THP1 Homogeneous Time Resolved Fluorescence)
Details: THP1 cells
Mark y for EC50 under 30 nM, n if at or over.

# strict comparison: is reported EC50 < 30 nM? input = CS(=O)(=O)N1CCC(Nc2cc(-n3ncc4cc(C#N)cnc43)ncc2-n2cc([C@H]3CC[C@H](CCN4CCN(c5ccc(C6CCC(=O)NC6=O)cc5)CC4)CC3)nn2)CC1 (some centres unmarked)
n

# strict comparison: is reported EC50 < 30 nM? input = N#Cc1cnc2c(cnn2-c2cc(NC3CCC3)c(C(=O)NC3CCC(CCN4CCN(c5ccc(C6CCC(=O)NC6=O)cc5)CC4)CC3)cn2)c1 (centres unmarked)
n

# strict comparison: is reported EC50 < 30 nM? input = N#Cc1cnc2c(cnn2-c2cc(NC3CCC(C(N)=O)CC3)c(C(=O)N[C@H]3CC[C@H](CCN4CCN(c5ccc(C6CCC(=O)NC6=O)cc5)CC4)CC3)cn2)c1 (some centres unmarked)
y

# strict comparison: is reported EC50 < 30 nM? input = N#Cc1cnc2c(cnn2-c2cc(NC3CC3)c(C(=O)NC3CCC(CCN4CCN(c5ccc([C@H]6CCC(=O)NC6=O)cc5)CC4)CC3)cn2)c1 (some centres unmarked)
y

# strict comparison: is reported EC50 < 30 nM? input = N#Cc1cnc2c(cnn2-c2cc(NC3CCCC3)c(C(=O)NC3CCC(C(=O)N4CCC(c5ccc6c(c5)C(=O)N(C5CCC(=O)NC5=O)C6)CC4)CC3)cn2)c1 (centres unmarked)
n

# strict comparison: is reported EC50 < 30 nM? input = N#Cc1cnc2c(cnn2-c2cc(NC3CCCC3)c(C(=O)NC3CCC(CCN4CCC(Nc5cccc(C6CCC(=O)NC6=O)c5)CC4)CC3)cn2)c1 (centres unmarked)
n

# strict comparison: is reported EC50 < 30 nM? input = N#Cc1cnc2c(cnn2-c2cc(NCC3CC3)c(C(=O)N[C@H]3CC[C@H](CCN4CCN(c5ccc(C6CCC(=O)NC6=O)cc5)CC4)CC3)cn2)c1 (some centres unmarked)
n

# strict comparison: is reported EC50 < 30 nM? input = N#Cc1cnc2c(cnn2-c2cc(NC3CCCC3)c(-n3cc([C@H]4CC[C@H](CN5CCN(c6ccc7c(c6)C(=O)N(C6CCC(=O)NC6=O)C7)CC5)CC4)nn3)cn2)c1 (some centres unmarked)
y

# strict comparison: is reported EC50 < 30 nM? input = N#Cc1cnc2c(cnn2-c2cc(NC3CC3)c(C(=O)N[C@H]3CC[C@H](CCN4CCC(c5ccc(C6(F)CCC(=O)NC6=O)cc5)CC4)CC3)cn2)c1 (single isomer, unassigned) [P-125]
y

# strict comparison: is reported EC50 < 30 nM? input = O=C1CCC(N2C(=O)c3ccc(N4CCN(C(=O)[C@H]5CC[C@H](n6cc(-c7cnc(Nc8ccc9ncsc9c8)cc7NC7CCCC7)nn6)CC5)CC4)cc3C2=O)C(=O)N1 (some centres unmarked)
y
